system: NRG-mice bearing LNCaP tumors; assay: Biodistribution (and PET/SPECT imaging) in NRG-mice bearing LNCaP tumors; assay type: in vivo; settings: 24 h p.i., Avg
*1 amine or outer side, *2 acyl side, *3 side chain or, on linkers, in order; H or OH if unused. Where a SMILES comes first, the peptide text is derived from it. [ ]: non-standard residue; d: D form. The star is where a group is joined. ξ: configuration not given here. ξLys(Nα-CO-ξAad) = O=C(O)CCCC(NC(=O)NC(CCCCN*)C(=O)O)C(=O)O; Butanoyl(4-(4-NO2Ph)) = O=C(CCCc1ccc([N+](=O)[O-])cc1)*; DOTA = O=C(O)CN1CCN(CC(=O)O)CCN(CC(=O)*)CCN(CC(=O)O)CC1; Butanoyl(4-(4-MeO-phenyl)) = COc1ccc(CCCC(=O)*)cc1; ξAla(9-anthryl) = NC(Cc1c2ccccc2cc2ccccc12)C(=O)O; X2 = O=C(NC(CCCCN*)C(=O)O)NC(CC(F)C(=O)O)C(=O)O; X1 = O=C(C1CCC(CN[*:1])CC1)[*:2]; ξK = NCCCCC(N)C(=O)O
Measured property: Biodistribution: Testes (% ID/g)
Please respond with the number in % ID/g and leave the unit unwritten.

Problem: Return Biodistribution: Testes (reported value) for this compound: O=C([O-])CN1CCN(CC(=O)[O-])CCN(CC(=O)NCCCCC(NC(=O)CNC(=O)CCCc2ccc([N+](=O)[O-])cc2)C(=O)NCC(=O)NCC2CCC(C(=O)NC(Cc3c4ccccc4cc4ccccc34)C(=O)NCCCCC(NC(=O)NC(CCCC(=O)O)C(=O)O)C(=O)O)CC2)CCN(CC(=O)[O-])CC1.[225Ac+3] (stereo not shown) [^225Ac-CCZ02017] ({Butanoyl(4-(4-NO2Ph))}-G[ξK](DOTA)G[X1][ξAla(9-anthryl)]-{ξLys(Nα-CO-ξAad)})
Result: 0.38

Problem: Supply reported Biodistribution: Testes belonging to this compound: O=C([O-])CN1CCN(CC(=O)[O-])CCN(CC(=O)NCCCCC(NC(=O)CNC(=O)CCCc2ccc([N+](=O)[O-])cc2)C(=O)NCC(=O)NCC2CCC(C(=O)NC(Cc3c4ccccc4cc4ccccc34)C(=O)NCCCCC(NC(=O)NC(CCCC(=O)O)C(=O)O)C(=O)O)CC2)CCN(CC(=O)[O-])CC1.[177Lu+3] (stereo not shown) [^177Lu-CCZ02017] ({Butanoyl(4-(4-NO2Ph))}-G[ξK](DOTA)G[X1][ξAla(9-anthryl)]-{ξLys(Nα-CO-ξAad)})
Result: 0.48

Problem: Identify Biodistribution: Testes associated with the compound COc1ccc(CCCC(=O)NCC(=O)NC(CCCCNC(=O)CN2CCN(CC(=O)[O-])CCN(CC(=O)[O-])CCN(CC(=O)[O-])CC2)CC(=O)NCC2CCC(C(=O)NC(Cc3c4ccccc4cc4ccccc34)C(=O)NCCCCC(NC(=O)NC(CC(F)C(=O)O)C(=O)O)C(=O)O)CC2)cc1.[177Lu+3] (stereo not shown) [^177Lu-CCZ02019]
Result: 0.37

Problem: Using known records, supply Biodistribution: Testes for COc1ccc(CCCC(=O)NCC(=O)NC(CCCCNC(=O)CN2CCN(CC(=O)[O-])CCN(CC(=O)[O-])CCN(CC(=O)[O-])CC2)C(=O)NCC(=O)NCC2CCC(C(=O)NC(Cc3c4ccccc4cc4ccccc34)C(=O)NCCCCC(NC(=O)NC(CC(F)C(=O)O)C(=O)O)C(=O)O)CC2)cc1.[177Lu+3] (stereo not shown) [^177Lu-CCZ02008] ({Butanoyl(4-(4-MeO-phenyl))}-G[ξK](DOTA)G[X1][ξAla(9-anthryl)]-X2)
Result: 1.86
